B1: Transitional endoplasmic reticulum ATPase, residues 26 to 106; numbered along this chain, P55072 (parent)
chain: LIVDEAINEDNSVVSLSQPKMDELQLFRGDTVLLKGKKRREAVCIVLSDDTCSDEKIRMNRVVRNNLRVRLGDVISIQPCP

variants of: B1; assay: abundance fitness (aPCA) (normalised: wild type 0, dead -1); higher = more abundant; growth selection in yeast, the domain comes from the species named; conditions: Homo sapiens
Metric: abundance fitness
API note: the answer field is a bare number with no unit suffix.

Q. Tell us which abundance fitness value is on record for E55T
A. -0.03

Q. Tell us which abundance fitness value is on record for G72H
A. -0.257

Q. Tell us which abundance fitness value is on record for M59S
A. -0.817

Q. Tell us which abundance fitness value is on record for T51W
A. -0.275

Q. Tell us which abundance fitness value is on record for K20T
A. -0.08

Q. Tell us which abundance fitness value is on record for V74S
A. -0.048

Q. Tell us which abundance fitness value is on record for S48T
A. -0.005

Q. Tell us which abundance fitness value is on record for L34S
A. -0.757

Q. Tell us which abundance fitness value is on record for D4T
A. -0.017

Q. Tell us which abundance fitness value is on record for K56D
A. -0.271

Q. Tell us which abundance fitness value is on record for Q25F
A. -0.129

Q. Tell us which abundance fitness value is on record for I75T
A. -0.495

Q. Tell us which abundance fitness value is on record for R64A
A. -0.023

Q. Tell us which abundance fitness value is on record for N65Q
A. -0.075

Q. Tell us which abundance fitness value is on record for R58I
A. -0.089

Q. Tell us which abundance fitness value is on record for V3L
A. -0.708

Q. Tell us which abundance fitness value is on record for K35L
A. -0.058

Q. Tell us which abundance fitness value is on record for I7H
A. -0.15

Q. Tell us which abundance fitness value is on record for R61T
A. -0.009

Q. Tell us which abundance fitness value is on record for L71R
A. -0.102

Q. Tell us which abundance fitness value is on record for K38M
A. -0.018

Q. Tell us which abundance fitness value is on record for Q18P
A. -0.078

Q. Tell us which abundance fitness value is on record for D10Y
A. -0.096

Q. Tell us which abundance fitness value is on record for C52H
A. -0.452

Q. Tell us which abundance fitness value is on record for G29V
A. -0.612

Q. Tell us which abundance fitness value is on record for V14W
A. -0.816

Q. Tell us which abundance fitness value is on record for G29Q
A. -0.104

Q. Tell us which abundance fitness value is on record for K20N
A. -0.093

Q. Tell us which abundance fitness value is on record for V13H
A. 0.053

Q. Tell us which abundance fitness value is on record for Q25V
A. -0.202

Q. Tell us which abundance fitness value is on record for M59K
A. -1.03

Q. Tell us which abundance fitness value is on record for V43I
A. -0.038

Q. Tell us which abundance fitness value is on record for M59R
A. -1.08

Q. Tell us which abundance fitness value is on record for E23Y
A. -0.164

Q. Tell us which abundance fitness value is on record for L16E
A. -0.762

Q. Tell us which abundance fitness value is on record for V43W
A. 0.03

Q. Tell us which abundance fitness value is on record for V3F
A. -0.797

Q. Tell us which abundance fitness value is on record for L24N
A. -0.47

Q. Tell us which abundance fitness value is on record for S76F
A. -0.043

Q. Tell us which abundance fitness value is on record for Q78R
A. -0.071
